Entry source: paper PMC5225183

Below, each of the compounds is paired with its reported Number of non-cytotoxic changes value.
Tested on: ESCs and ESC-derived neurons
Assay: Dual luminescence reporter test system, all readouts in ESCs and ESC-derived neurons
Details: reporter activity changes in the non-cytotoxic concentration range; highest possible number 4
Square brackets hold non-standard residues; d marks the D form. Peptide text beside a SMILES is read from it. * marks the point of attachment. Fmoc = O=C(OCC1c2ccccc2-c2ccccc21)*; Cha = N[C@@H](CC1CCCCC1)C(=O)O; AMC = Cc1cc(=O)oc2cc(N*)ccc12
Respond numerically, and do not add a unit to the figure.

[CH3][Sn]([CH3])([CH3])[Cl] [Trimethyltin chloride]	1
Cc1cc(=O)oc2cc(NC(=O)[C@H](CCCCN)NC(=O)[C@H](CC3CCCCC3)NC(=O)OCC3c4ccccc4-c4ccccc43)ccc12 [Galnon] (Fmoc-[Cha]-Lys-{AMC})	2
COCC(=O)O [Methoxyacetic acid]	1

Query (compound): C/C(O)=C(\C#N)C(=O)Nc1ccc(C(F)(F)F)cc1 [Teriflunomide] ; field requested: Number of non-cytotoxic changes
1

Query (compound): O=c1[nH]c(=O)c2[nH]c(=O)[nH]c2[nH]1 [Uric acid] ; field requested: Number of non-cytotoxic changes
0

Query (compound): Clc1cc(Cl)c(-c2cc(Cl)c(Cl)cc2Cl)cc1Cl [PCB-153] ; field requested: Number of non-cytotoxic changes
2

Query (compound): Brc1ccc(Oc2cc(Br)c(Br)cc2Br)c(Br)c1 [PBDE-99] ; field requested: Number of non-cytotoxic changes
1

Query (compound): [CH3][Hg][Cl] [Methylmercury] ; field requested: Number of non-cytotoxic changes
1

* * *

Below, each of the compounds is paired with its reported LOAEL ESC DNA value.
Tested on: CGR8-2Luc ESCs
Conditions: undifferentiated ESCs, 48 h exposure, PI assay (cytotoxicity)

Query (compound): O=C(/C=C/c1cccc(S(=O)(=O)Nc2ccccc2)c1)NO ; field requested: LOAEL ESC DNA
0.5 µM

Query (compound): N[C@@H](CC(=O)N1CCn2c(nnc2C(F)(F)F)C1)Cc1cc(F)c(F)cc1F ; field requested: LOAEL ESC DNA
>50 µM

Query (compound): COc1cccc2c1C(=O)c1c(O)c3c(c(O)c1C2=O)C[C@@](O)(C(=O)CO)C[C@@H]3O[C@H]1C[C@H](N)[C@H](O)[C@H](C)O1 ; field requested: LOAEL ESC DNA
0.005 µM

Query (compound): [Br][Hg][Br] [Mercury bromide] ; field requested: LOAEL ESC DNA
5 µM

Query (compound): C/C(O)=C(\C#N)C(=O)Nc1ccc(C(F)(F)F)cc1 [Teriflunomide] ; field requested: LOAEL ESC DNA
>50 µM

Query (compound): [CH3][Hg][Cl] ; field requested: LOAEL ESC DNA
0.5 µM

Query (compound): CCC[C@H](NC(=O)[C@@H]1[C@H]2CCC[C@H]2CN1C(=O)[C@@H](NC(=O)[C@@H](NC(=O)c1cnccn1)C1CCCCC1)C(C)(C)C)C(=O)C(=O)NC1CC1 ; field requested: LOAEL ESC DNA
50 µM

Query (compound): COC(=O)c1ccc2c(c1)NC(=O)/C2=C(\Nc1ccc(N(C)C(=O)CN2CCN(C)CC2)cc1)c1ccccc1 ; field requested: LOAEL ESC DNA
5 µM

Query (compound): COc1cc2ncnc(Nc3ccc(F)c(Cl)c3)c2cc1OCCCN1CCOCC1 ; field requested: LOAEL ESC DNA
50 µM

Query (compound): Brc1ccc(Oc2cc(Br)c(Br)cc2Br)c(Br)c1 ; field requested: LOAEL ESC DNA
>50 µM

Query (compound): O=C(NC[C@H]1CN(c2ccc(N3CCOCC3=O)cc2)C(=O)O1)c1ccc(Cl)s1 ; field requested: LOAEL ESC DNA
>10 µM

Query (compound): COCCCOc1cc(C[C@@H](C[C@H](N)[C@@H](O)C[C@H](C(=O)NCC(C)(C)C(N)=O)C(C)C)C(C)C)ccc1OC ; field requested: LOAEL ESC DNA
>50 µM

Query (compound): CN(C)CCCN1c2ccccc2Sc2ccc(Cl)cc21 ; field requested: LOAEL ESC DNA
20 µM

Query (compound): [CH3][Sn]([CH3])([CH3])[Cl] [Trimethyltin chloride] ; field requested: LOAEL ESC DNA
5 µM

Query (compound): O=c1[nH]c(=O)c2[nH]c(=O)[nH]c2[nH]1 ; field requested: LOAEL ESC DNA
>50 µM

Query (compound): Nc1ccccc1NC(=O)c1ccc(CNC(=O)OCc2cccnc2)cc1 ; field requested: LOAEL ESC DNA
5 µM

Query (compound): CCCc1nn(C)c2c(=O)[nH]c(-c3cc(S(=O)(=O)N4CCN(C)CC4)ccc3OCC)nc12 ; field requested: LOAEL ESC DNA
>50 µM
